- Organism: Homo sapiens
- Assay notes: To identify inhibition of the IFN signalling (Jak-Stat) pathway via expression of an eGFP reporter gene under the control of an IFN-stimulated response element (ISRE) containing MxA promoter.
- Assay type: functional
- Parameters: scale not given: direction of the effect not stated beside the values
- Stated conditions: 30 µM

| Molecule | Percent Effect [%] |
| --- | --- |
| CN(CCO)Cc1nnc(C2CCN(C(=O)C(C)(C)C)CC2)n1C | 2.97 |
| Cc1ccc(C(=O)N2CCCC2c2nnc3n2CCCCC3)o1 (stereo unspecified) | -2.88 |
| CCOc1cc(C)nc(N2CCN(C(=O)CC)CC2)n1 | 17.8 |
| COc1ccc2c(c1)C1(CCN(Cc3ccncc3)CC1)N(C)CC2 | -6.76 |
| Cc1nc(O)c2nnn(C[C@H]3CCCN3C(=O)CCC3CCCC3)c2n1 | -0.726 |
| CCn1cc(Br)c(C(=O)NCc2cccnc2)n1 | 3.08 |
| COc1ccc(OC)c(NC(=O)N2CCCC2c2ccco2)c1 (stereo unspecified) | 13.8 |
| Cc1nnc([C@@H]2CC[C@@H]3[C@@H](CCN3S(=O)(=O)c3cccnc3)O2)o1 | -6.25 |
| COC[C@@H]1CC[C@H]2[C@H](CCN2C(=O)c2ccncc2F)O1 | -15.4 |
| CCOc1cccc(CNC(=O)NCC(O)c2cccc(F)c2)c1 (stereo unspecified) | 29.2 |
| Cc1nc(CN2CCCN(C(=O)C(C)OCC3CC3)CC2)cs1 (stereo unspecified) | 4.67 |

====

Listed compounds paired with reported Percent Effect
- System under test: Ubiquitin-activating enzyme e1, putative (Leishmania donovani (strain BPK282A1)) (UniProt E9BSI1)
- Sequence (E9BSI1 as listed by the source): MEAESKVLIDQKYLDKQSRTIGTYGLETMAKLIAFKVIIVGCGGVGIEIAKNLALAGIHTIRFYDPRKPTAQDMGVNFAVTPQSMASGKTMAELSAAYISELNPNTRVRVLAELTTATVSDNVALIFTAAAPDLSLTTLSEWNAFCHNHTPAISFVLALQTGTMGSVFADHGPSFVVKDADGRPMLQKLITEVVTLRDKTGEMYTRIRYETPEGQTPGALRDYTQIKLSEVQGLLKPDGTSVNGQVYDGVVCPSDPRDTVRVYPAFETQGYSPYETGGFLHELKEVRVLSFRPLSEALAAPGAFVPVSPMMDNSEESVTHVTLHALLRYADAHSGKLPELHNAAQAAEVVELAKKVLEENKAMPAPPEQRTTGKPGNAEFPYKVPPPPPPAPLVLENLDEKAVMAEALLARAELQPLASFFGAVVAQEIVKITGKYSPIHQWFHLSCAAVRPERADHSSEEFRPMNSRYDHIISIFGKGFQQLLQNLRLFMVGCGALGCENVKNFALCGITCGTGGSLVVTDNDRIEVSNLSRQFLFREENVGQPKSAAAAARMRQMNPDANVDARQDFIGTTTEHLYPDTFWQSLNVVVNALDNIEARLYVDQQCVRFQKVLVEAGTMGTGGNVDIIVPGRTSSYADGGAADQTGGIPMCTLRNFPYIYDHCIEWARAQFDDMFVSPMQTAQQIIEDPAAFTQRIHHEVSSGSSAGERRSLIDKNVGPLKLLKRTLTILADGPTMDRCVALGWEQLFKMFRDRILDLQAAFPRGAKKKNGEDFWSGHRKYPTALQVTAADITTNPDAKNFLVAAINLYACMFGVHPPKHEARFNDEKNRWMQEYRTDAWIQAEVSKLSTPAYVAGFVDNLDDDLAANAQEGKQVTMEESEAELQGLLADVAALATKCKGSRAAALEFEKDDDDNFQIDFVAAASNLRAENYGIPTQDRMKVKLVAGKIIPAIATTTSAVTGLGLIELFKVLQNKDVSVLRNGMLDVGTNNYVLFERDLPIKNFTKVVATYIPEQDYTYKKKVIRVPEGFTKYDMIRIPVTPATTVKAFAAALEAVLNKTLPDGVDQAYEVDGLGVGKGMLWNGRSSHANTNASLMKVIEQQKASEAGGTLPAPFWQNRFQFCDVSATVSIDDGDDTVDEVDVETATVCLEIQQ
- Assay notes: Leishmania donovani Ubiquitin Activating Enzyme (LdE1)
- Type: functional
- Parameters: scale not given: direction of the effect not stated beside the values
- Stated conditions: 30 µM
Results with a measured potency or affinity are listed apart.
Value kind: Percent Effect (%)

| Compound | Value kind | Assay result |
| --- | --- | --- |
| CCOCc1cccc(S(=O)(=O)N2CCSCC2)c1 | Percent Effect | 1.33 |
| Cc1nc(CNCC2CCCN2c2cccnn2)no1 (centres undefined) | Percent Effect | -13 |
| CN(Cc1ccco1)C[C@H]1OC[C@@H]2CCN(Cc3cccs3)C[C@@H]21 | Percent Effect | -2.67 |
| Cc1nc(C)n(CC2CCCCN2CC(=O)Nc2cccnc2)n1 (centres undefined) | Percent Effect | 4.17 |
| Cc1csc([C@@H]2C[C@@H]3CCN(C(=O)c4ccnnc4)C[C@H]3O2)n1 | Percent Effect | 2.6 |
| O=C(c1cccnc1)N1CCCC(c2cc(C(F)F)n3ncnc3n2)C1 (centres undefined) | Percent Effect | 9.46 |
| COC(=O)N1CCCN(C(=O)NCc2ccc(Cl)s2)CC1 | Percent Effect | 16.5 |
| O=C(Cc1ccsc1)N1CCC(n2nc(-c3ccco3)ccc2=O)CC1 | Percent Effect | 6.76 |
| Cc1ncc(C(=O)N2C[C@H]3CC[C@@H]2CN(S(=O)(=O)N(C)C)C3)c(C)n1 | Percent Effect | 16 |
| CCOc1ccnc(N2CCN(C(=O)c3cccc(C#N)c3)CC2)n1 | Percent Effect | 13.2 |
| COc1ncccc1CN1Cc2nnn(C)c2C(COCC2CC2)C1 (centres undefined) | Percent Effect | 7.79 |
| CN(C)C(=O)CC1CC2(CCN(c3ncccn3)CC2)c2ccccc21 (centres undefined) | Percent Effect | 5.41 |
| COc1ccc(CNC(C)c2ccc3[nH]c(=O)[nH]c3c2)cc1 (centres undefined) | Percent Effect | -5.41 |
| CN1CCC(Oc2ccc(NC(=O)c3ccccc3Br)cc2)CC1 | Percent Effect | -2.6 |
| Cn1cc(Cl)cc1C(=O)N1CCN(Cc2ccsc2)CC1 | Percent Effect | 5.26 |
| COc1ccc(C(=O)N2CCCCC2Cn2cccn2)c(F)c1 (centres undefined) | Percent Effect | 15.6 |
| CC(C)c1ccc(CN2CCC3(CCCN(c4nncs4)C3)C2)cc1 (centres undefined) | Percent Effect | 2.7 |
| Cc1c[nH]nc1C1CCN(S(=O)(=O)N(C)C)CC1 | Percent Effect | 1.35 |
| CCc1nnsc1C(=O)NC1CCN(c2ccccn2)CC1 | Percent Effect | 18.9 |
| CNC(=O)CCc1cc(C)nc(C2CCCN2)c1 (centres undefined) | Percent Effect | 14.9 |
| CN(Cc1ccco1)C(=O)C1CSCN1C(=O)c1cccnc1 (centres undefined) | Percent Effect | 0 |
| Cc1nc(CN2CCCC(NCc3c(C)nc4sccn34)C2)no1 (centres undefined) | Percent Effect | 5.2 |
| CCCc1noc(CCC(=O)NC(C)c2nnc3n2CCCCC3)n1 (centres undefined) | Percent Effect | 8.11 |
| CCSCCC(=O)Nc1ncn(CC(=O)NCc2ccccc2)n1 | Percent Effect | 16 |
| CSc1ncccc1C(=O)N1C[C@H]2CC[C@@H]1CN(c1ncccn1)C2 | Percent Effect | 7.79 |
| O=C(c1cccc(F)c1)N1CCOC(c2nc(-c3ncccn3)no2)C1 (centres undefined) | Percent Effect | 5.33 |
| CC(C)(C)c1ncc2c(n1)CN(C(=O)c1ccncc1)C2 | Percent Effect | 5.48 |
| Clc1snnc1CN1CCCC(Cn2cncn2)C1 (centres undefined) | Percent Effect | 17.7 |
| CC(O)CN1CCN(C(=O)c2ccc3c(c2)COC3)CC1 (centres undefined) | Percent Effect | 10.1 |
| Cc1noc(NC(=O)c2ccc(Br)cc2)n1 | Percent Effect | 26.3 |
| COCc1ncn2c1CN(C(=O)C1CC=CC1)CC2 | Percent Effect | 2.7 |
| CC(C)COCc1cncc2c1CCN(Cc1cnn(C)c1)C2 | Percent Effect | 7.79 |
| CO[C@@H]1CC[C@H]2[C@H]1OCCN2C(=O)c1ccc(C)o1 | Percent Effect | 10.4 |
| c1cnnc(N2CCCC2CNc2nc3ccccc3o2)c1 (centres undefined) | Percent Effect | 11.4 |
| Cc1cccc(Cn2ccc(NS(C)(=O)=O)n2)c1 | Percent Effect | 7.79 |
| Cc1csc2c(N3CCC(NCCCc4ccncc4)CC3)ncnc12 | Percent Effect | 2.6 |
| Cc1cnc(CN2CCCC(c3cc(C(N)=O)[nH]n3)C2)o1 (centres undefined) | Percent Effect | 24.3 |
| Cc1noc(C)c1CCC(=O)N1CCN(CCn2cncn2)CC1 | Percent Effect | 4.17 |
| c1cnnc(N2CCCC2CNc2ncnc3c2CCC3)c1 (centres undefined) | Percent Effect | 1.27 |
| Cc1cc(NC(=O)CN2CCc3nn(C)c(=O)cc3C2)on1 | Percent Effect | 6.94 |
| CN(C)C(=O)N1CCC2(CCCN(Cc3cnn(C)c3)C2)C1 (centres undefined) | Percent Effect | 0 |
| CCC(=O)N1CCCC1c1nccnc1Nc1ncccn1 (centres undefined) | Percent Effect | -6.76 |
| CCN(C)c1ncnc2c1CCN(Cc1csc(C)n1)CC2 | Percent Effect | 8.11 |
| O=C(Cc1ccccn1)N1CCN(CC2CC2)c2ncccc2C1 | Percent Effect | 10.7 |
| COCc1noc(C2(c3ccc(OC)cc3)CCOCC2)n1 | Percent Effect | 5.41 |
| CC(C)NC(=O)N1CCC2(CC(C(=O)NCc3cccnc3)=NO2)C1 (centres undefined) | Percent Effect | 2.67 |
| CC(C)CC(=O)N1CCCn2cnc(CN3CCCC3=O)c2C1 | Percent Effect | 0 |
| CS(=O)(=O)CCC(=O)Nc1cnn(-c2ccccc2Cl)c1 | Percent Effect | 13.5 |
| Cc1cnc(CN(C)CC2CCCN2c2cccnn2)cn1 (centres undefined) | Percent Effect | 15.6 |

====

Listed compounds paired with reported Percent Effect
- Organism: Homo sapiens
- Assay notes: To identify inhibition of the IFN signalling (Jak-Stat) pathway via expression of an eGFP reporter gene under the control of an IFN-stimulated response element (ISRE) containing MxA promoter.
- Type: functional
- Design: scale not given: direction of the effect not stated beside the values
- Stated conditions: 30 µM

| Compound | Percent Effect [%] |
| --- | --- |
| Cc1ncsc1C(=O)Nc1cccc(OCC(F)F)n1 | 31.7 |
| Cc1nc(C(=O)N2CCCC(n3cncn3)C2)cs1 (configuration not stated) | -1.7 |
| Cc1nc2ccccc2nc1CN1CCCC1c1c(C)nn(C)c1C (configuration not stated) | 3.07 |
| Cc1cc(-c2cnn(CCNC(=O)c3cccnc3)c2C2CC2)on1 | 7.9 |
| Cc1ccc(N2CCCC(NCc3nc(C)c(C)o3)C2)nn1 (configuration not stated) | 2.43 |
| COc1ccccc1CC1CCCN(CC(N)=O)C1 (configuration not stated) | -0.966 |
| CCNC(=O)N(C)C(c1cccc(F)c1)c1ccccn1 (configuration not stated) | 21.3 |
| c1cncc(COCc2nnc3n2CCN(Cc2ccoc2)C3)c1 | 8.47 |
| O=C(CC1CCCO1)NCc1ccccc1Cn1cncn1 (configuration not stated) | 3.32 |
| Cc1cc(NC(=O)c2nc(N3CCCC3)ncc2Cl)nc(C(C)C)n1 | 2.69 |
| Cc1cnn(CC2CN(Cc3nc4ccccc4nc3C)CCO2)c1 (configuration not stated) | -8.59 |
| COCC1CC2(CCN(C(=O)c3cc(C)oc3C)CC2)CN1C(C)C (configuration not stated) | 1.95 |
